biological target: T1, HLA-A*02 (human); assay: UV-exchange ELISA (anti-b2m); yield 50%-75%
T1 construct: Peptide-receptive MHC monomer made by UV cleavage of a UV-sensitive ligand and captured on streptavidin plates; also called HLA-A*02 MHC class I molecule; peptide-receptive MHC
peptide exchange yield values by entry

* SLAKHGIVAL | 50 to 75%
* ILDNVKNLL | 50 to 75%
* GTFLEGVAK | 50 to 75%
* LLWAGPVTA | 50 to 75%
* AIWKELISL | 50 to 75%
* ALMAVVSGL | 50 to 75%

Quick one: give measured peptide exchange yield for GLITVDIAL
50 to 75%

Supply recorded peptide exchange yield for VLRDNIQGI here.
50 to 75%

Provide peptide exchange yield value for the following binder: SLLPLVWKI
50 to 75%

Supply measured peptide exchange yield of ALVSGGVAQA in your reply.
50 to 75%

Let me know recorded peptide exchange yield for ELLSSIFFL , thanks.
50 to 75%

Give the reported value of peptide exchange yield for this record: AAAAKVPEV
50 to 75%

Give a short answer stating reported peptide exchange yield for ALINDILGELVKL .
50 to 75%

Provide measured peptide exchange yield value, entry: SIGDIFLKY
50 to 75%

Read off the recorded peptide exchange yield for TLCNKTFTA
50 to 75%

Supply reported peptide exchange yield belonging to this binder: KVFGDLDQV
50 to 75%
